Some molecules, each annotated with its measured pEC50.
assay: Inhibition of Hepatitis C virus genotype 1b NS5B RNA-dependent-RNA polymerase assessed as reduction in viral replication after 72 hrs by indirect immunofluorescence assay
pEC50: −log10 of the molar value.
quantity: pEC50

>>> obs_value("Fc1ccccc1-c1nc2ccn(Cc3cn(-c4ccccc4)nn3)cc-2n1")
7.64
>>> obs_value("COc1cccc(-n2cc(Cn3ccc4nc(-c5ccccc5F)nc-4c3)nn2)c1")
7.89
>>> obs_value("Cc1cc(C)n2cc(Cn3cc(Cn4ccc5nc(-c6ccccc6F)nc-5c4)nn3)nc2n1")
7.43
>>> obs_value("Fc1ccccc1-c1nc2ccn(Cc3cn(Cc4cn5cccnc5n4)nn3)cc-2n1")
7.68
>>> obs_value("COc1ccc(-n2cc(Cn3ccc4nc(-c5ccccc5F)nc-4c3)nn2)cc1")
8.92
>>> obs_value("O=c1ccccn1Cc1ccc(-n2cc(Cn3ccc4nc(-c5ccccc5F)nc-4c3)nn2)cc1")
7.03
>>> obs_value("CS(=O)(=O)Nc1ccc(-n2cc(Cn3ccc4nc(-c5ccccc5F)nc-4c3)nn2)cc1")
7.74
>>> obs_value("Fc1ccccc1-c1nc2ccn(Cc3cn(-c4ccccc4F)nn3)cc-2n1")
7.28
>>> obs_value("O=c1ncccn1Cc1ccc(-n2cc(Cn3ccc4nc(-c5ccccc5F)nc-4c3)nn2)cc1")
7.02
>>> obs_value("Cc1cc(C)n2nc(Cn3cc(Cn4ccc5nc(-c6ccccc6F)nc-5c4)nn3)nc2n1")
7.08
>>> obs_value("Fc1ccc(-n2cc(Cn3ccc4nc(-c5ccccc5F)nc-4c3)nn2)cc1")
7.46

These measurements were taken from BindingDB's records for doi:10.1016/j.bmc.2018.04.029.
